- Tested on: SK-MEL-28 melanoma
- Measurement Notes: NCI-60 one-dose screen, 48 h (100 = growth as untreated, 0 = no growth, -100 = all killed)
- Experimental Setup: 10 µM unless noted
About 83,000 compounds went through this panel and 20% of them were active in at least one assay; those are over-represented in the sample as a whole.
Quantity: growth (%)
Express it in %; write the number only.

# example entries with known answers
CC(=O)Nc1ccc(C(=O)NC(=S)Nc2ccc(S(N)(=O)=O)cc2)cc1 | 97
COc1ccc(C(=O)/C=C/c2ccc(OCc3ccccc3)c(OC)c2)cc1OC | 70.4
O=C(NNc1ccccc1)n1c(=O)c2ccccc2c(=O)n1-c1ccccc1 | 104

Ask: Please report the measured growth for O=C(c1ccc(OCCN2CCOCC2)cc1)C1[C@H](c2ccc(Cl)cc2)[C@@H](c2ccccc2)NC12C(=O)Nc1ccc(Br)cc12 (stereo not given in full) tested on SK-MEL-28 melanoma.
Reply: 44.1

Ask: Quote growth with test system SK-MEL-28 melanoma for NS(=O)(=O)c1ccc(NNC(=O)CCC(=O)c2ccccc2)cc1
Reply: 112

Ask: State measured growth of the compound OCC1(CCCc2ccccc2)CCCN(c2nccc3ccccc23)C1 (stereo not given) with SK-MEL-28 melanoma.
Reply: 32.4

Ask: Please respond with reported growth (system SK-MEL-28 melanoma) for C=CC(=O)Nc1ccc(C)c(Oc2ccc(Cl)cc2)c1 .
Reply: 72

Ask: Provide SK-MEL-28 melanoma growth reading for Cc1ccc(-c2nnc3ccc(N/N=C/c4ccccc4)nn23)cc1 .
Reply: 95.7

Ask: Report value: growth, system: SK-MEL-28 melanoma, compound: C=C1CC[C@@H]2[C@]3(C)COC(c4cn[nH]c4-c4cccc(Cl)c4)O[C@@H]3CC[C@@]2(C)[C@@H]1C/C=C1/C(=O)OCC1O (stereo not given in full)
Reply: -76.6

Ask: Look up and report growth, with SK-MEL-28 melanoma as system, for Cc1cc(=O)oc2cc(OCCCCOc3ccc(/C=C/C(=O)Nc4ccccc4N)cc3)ccc12
Reply: 81.2
